Listed next: entries and their corresponding Vd.
assay-details: Pharmacokinetic test in rats
Format: in vivo
condition-description: rat; male SD rats, intravenous administration (2.5 mg/kg), plasma; read-out: Vdss
Method: 3.1 Experimental animals: Male SD rats (about 220 g, 6-8 weeks old, 6 rats/compound) were purchased from Chengdu Dossy Experimental Animals Co., Ltd. 3.2 Experimental design: On the day of the experiment, the SD rats were randomly grouped by body weight. […] Table 4 Administration information Before and after the administration, 0.1 ml of blood was taken from the orbit of the animals under isoflurane anaesthesia and placed in an EDTAK2 centrifuge tube. […]
parameter: Vd

compound="[2H]C([2H])([2H])n1cc(C(=O)N[C@H]2CC[C@H](CCc3coc(CN4Cc5ccc(C(F)(F)F)cc5C4)cc3=O)CC2)cn1 [Compound 118]" reported_value="0.755 L/kg"
compound="Cn1cc(C(=O)N[C@H]2CC[C@H](COc3coc(CN4Cc5ccc(C(F)(F)F)cc5C4)cc3=O)CC2)cn1 [Compound 35]" reported_value="0.788 L/kg"
compound="O=C(OC1CC1)N1CCC(/C=C/c2coc(CN3Cc4ccc(C(F)(F)F)cc4C3)cc2=O)CC1 [Compound 31]" reported_value="3.41 L/kg"
compound="O=C(N[C@H]1CC[C@H](/C=C/c2coc(CN3Cc4ccc(C(F)(F)F)cc4C3)cc2=O)CC1)C1CC1 [Compound 61]" reported_value="1.42 L/kg"

The measurements presented in this section are drawn from patent EP4692079A1.
